Just for reference, patent US9204653B2 is where these values come from.

pest or weed control at 25 ppm values for the compounds below.
Test system: Mycosphaerella graminicola; Anamorph: Septoria tritici; Bayer Code SEPTTR
Experiment: Leaf blotch of wheat, foliar fungicide treatment, one day protectant (1DP) or three day curative (3DC)
Assay type: in vivo, Septoria tritici on wheat plants (variety Yuma)
Details: Zymoseptoria tritici, 24 h, one day protectant (1DP), 25 ppm, rating of percent disease control, read-out: SETTTR 1DP 25 ppm

Answered examples (6):
compound: Nc1nc(OCc2cccc(I)c2)ncc1F
pest or weed control at 25 ppm: 76 to 100%

compound: CCOCNc1nc(OCc2ccccc2OC)ncc1F
pest or weed control at 25 ppm: 76 to 100%

compound: C/C(=N\Oc1ncc(F)c(/N=C/N(C)C)n1)c1ccccc1
pest or weed control at 25 ppm: 76 to 100%

compound: Cc1cc(C)nc(NNc2nc(OCc3ccccc3)ncc2F)n1
pest or weed control at 25 ppm: 0 to 25%

compound: Cc1ccc(COc2ncc(F)c(N(C)N)n2)cc1
pest or weed control at 25 ppm: 26 to 50%

compound: Cc1ccc(COc2ncc(F)c(N(N)C3CCCCC3)n2)cc1
pest or weed control at 25 ppm: 26 to 50%

response.value for CC[Si](CC)(CC)Nc1nc(OCCCOC)ncc1F (field: pest or weed control at 25 ppm) = 51 to 75%

pest or weed control at 25 ppm reading for COc1cccc(COc2ncc(F)c(NCc3ccccc3F)n2)c1 : 0 to 25%

For this compound ( ONc1nc(OCc2ccccc2)ncc1F ), measured pest or weed control at 25 ppm is 76 to 100%

Reported pest or weed control at 25 ppm of CC(Oc1ncc(F)c(N)n1)c1ccc([N+](=O)[O-])cc1 (stereo not shown) : 26 to 50%
